Assay: Physicochemical properties of VCR and TPT
parameter-measured: logP

logP recorded for this molecule, CC[C@]1(O)C[C@H]2CN(CCc3c([nH]c4ccccc34)[C@@](C(=O)OC)(c3cc4c(cc3OC)N(C=O)[C@H]3[C@@](O)(C(=O)OC)[C@H](OC(C)=O)[C@]5(CC)C=CCN6CC[C@]43[C@@H]65)C2)C1 , is 2.97

* * *

Test: in vivo
Conditions: nude, mouse, plasma, iv
parameter-measured: AUC (ng·h/mL)
The answer is to be given in ng·h/mL; state only the numeric part.

AUC recorded for this molecule, CC[C@]1(O)C[C@H]2CN(CCc3c([nH]c4ccccc34)[C@@](C(=O)OC)(c3cc4c(cc3OC)N(C=O)[C@H]3[C@@](O)(C(=O)OC)[C@H](OC(C)=O)[C@]5(CC)C=CCN6CC[C@]43[C@@H]65)C2)C1 , is 2510

AUC recorded for this molecule, CC[C@@]1(O)C(=O)OCc2c1cc1n(c2=O)Cc2cc3c(CN(C)C)c(O)ccc3nc2-1 , is 2700
